Data origin, for the record: the RNAGym collection of RNA variant scans (doi:10.1021/acssynbio.7b00057)

B1: Pistol ribozyme (parent)
chain: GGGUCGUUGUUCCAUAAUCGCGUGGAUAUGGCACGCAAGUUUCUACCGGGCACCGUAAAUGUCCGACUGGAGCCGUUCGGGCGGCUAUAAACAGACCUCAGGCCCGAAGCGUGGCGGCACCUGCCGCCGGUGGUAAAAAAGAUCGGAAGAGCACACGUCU

variants of: B1; assay: aptazyme ON/OFF ratio, guanine; higher = stronger switching; co-transcriptional cleavage with and without guanine

- variant.annotation: "U8C G9C U10C U11A C12G C13U"
  aptazyme ON/OFF ratio: 1.1
- variant.annotation: "U7C U8G C13A"
  aptazyme ON/OFF ratio: 1.25
- variant.annotation: "U7G U8C U10A U11A C12U C13U"
  aptazyme ON/OFF ratio: 1.24
- variant.annotation: "U7A G9C U10A C12G C13G"
  aptazyme ON/OFF ratio: 1.14
- variant.annotation: "U7G U11A"
  aptazyme ON/OFF ratio: 2.37
- variant.annotation: "U7C U8C G9A U10C U11G C12G C13A"
  aptazyme ON/OFF ratio: 1.23
- variant.annotation: "U8C U10G C12A"
  aptazyme ON/OFF ratio: 1.12
- variant.annotation: "U7C U8C G9A U11C C12G"
  aptazyme ON/OFF ratio: 1.17
- variant.annotation: "U7G U8A G9U C12G C13U"
  aptazyme ON/OFF ratio: 1.17
- variant.annotation: "G9C C12U C13A"
  aptazyme ON/OFF ratio: 1.14
- variant.annotation: "U7A G9C U11A C12G C13G"
  aptazyme ON/OFF ratio: 1.08
- variant.annotation: "U7A U8C G9C C13G"
  aptazyme ON/OFF ratio: 1.06
- variant.annotation: "U7C U8A G9U U10A U11C C13U"
  aptazyme ON/OFF ratio: 1.06
- variant.annotation: "U7A U8A C13A"
  aptazyme ON/OFF ratio: 1.38
- variant.annotation: "U7G U8C G9A U11G C12G C13A"
  aptazyme ON/OFF ratio: 1.07
- variant.annotation: "U7C U8C G9C U10A U11G C12A"
  aptazyme ON/OFF ratio: 1.16
- variant.annotation: "U8A G9C U10G U11A C12U C13A"
  aptazyme ON/OFF ratio: 1.12
- variant.annotation: "U7G U8C U10A U11A C12U C13G"
  aptazyme ON/OFF ratio: 1.2
- variant.annotation: "U7G U8C G9C U11C C12A"
  aptazyme ON/OFF ratio: 1.9
- variant.annotation: "U7A U8A G9C U10A U11C C12A C13A"
  aptazyme ON/OFF ratio: 1.12
- variant.annotation: "U8A U11C C12G"
  aptazyme ON/OFF ratio: 1.51
- variant.annotation: "U7G U8A U10G U11G C13U"
  aptazyme ON/OFF ratio: 1.42
- variant.annotation: "U7G U8A G9A U10C C13G"
  aptazyme ON/OFF ratio: 1.07
- variant.annotation: "U7C U8A G9A C12U C13G"
  aptazyme ON/OFF ratio: 1.19
- variant.annotation: "U7A U8C G9A U10G C12U C13G"
  aptazyme ON/OFF ratio: 1.18
- variant.annotation: "U7G U8C G9U U10A C13A"
  aptazyme ON/OFF ratio: 1.35
- variant.annotation: "U7G U8G G9U U10C U11C C13U"
  aptazyme ON/OFF ratio: 1.37
- variant.annotation: "U7A U8G G9A U10G U11A C13U"
  aptazyme ON/OFF ratio: 1.03
- variant.annotation: "U7A U10G C12G C13G"
  aptazyme ON/OFF ratio: 1.08
- variant.annotation: "U7G G9A U10A U11A C12U"
  aptazyme ON/OFF ratio: 1.2
- variant.annotation: "U7A U8C C12U C13U"
  aptazyme ON/OFF ratio: 1.27
- variant.annotation: "U8G G9A U10A U11G C12U C13U"
  aptazyme ON/OFF ratio: 1.56
- variant.annotation: "G9U U10C U11G C13G"
  aptazyme ON/OFF ratio: 1.18
- variant.annotation: "U7A U8G U10A U11C C12U C13A"
  aptazyme ON/OFF ratio: 1.14
- variant.annotation: "U7G U8G G9A U11C C13U"
  aptazyme ON/OFF ratio: 1.28
- variant.annotation: "U7G U8C G9C U10C C12U C13U"
  aptazyme ON/OFF ratio: 1.04
- variant.annotation: "U7A G9A U10A U11A C12G C13A"
  aptazyme ON/OFF ratio: 1.09
- variant.annotation: "U7G U8A G9U U10C U11G"
  aptazyme ON/OFF ratio: 1.24
- variant.annotation: "U7C U11A C12U C13A"
  aptazyme ON/OFF ratio: 1.18
- variant.annotation: "U7C U8C G9U U10C U11G C13G"
  aptazyme ON/OFF ratio: 1.3
- variant.annotation: "U7A U8G G9A U10C C12U"
  aptazyme ON/OFF ratio: 1.23
- variant.annotation: "U8G G9U U10G C12U C13G"
  aptazyme ON/OFF ratio: 1.02
- variant.annotation: "U7G U8C G9C U11C C13G"
  aptazyme ON/OFF ratio: 1.05
- variant.annotation: "U7C U8C G9U U10C U11G C12G C13A"
  aptazyme ON/OFF ratio: 1.14
- variant.annotation: "U8C G9U U10C U11G C12U C13U"
  aptazyme ON/OFF ratio: 1.25
- variant.annotation: "U7G U8A G9A U10G U11G C12G C13A"
  aptazyme ON/OFF ratio: 1.27
